Test system: DL1 cells
protocol.text: cytotoxicity in Drosophila DL1 cells
Assay type: cell-based
assay.setup: DL1 cells, cytotoxicity, average of two replicates; read-out: IC50 Average
recorded.endpoint: IC50

QUERY: Returns the measured IC50 for the input compound. Input: C=C1CCC2C(C)(CCC=C(C)C)C(O)CCC2(C)C1Cc1c(O)c(C)c(C)oc1=O (stereo not shown)
RESULT: 361 nM

====

protocol.text: cytotoxicity in Drosophila DL1 cells
Format: cell-based
assay.setup: Drosophila, DL1 cells (embryonic macrophage-derived), DL1 cells, 0.04 µM, replicate 2, relative to DMSO 1%; read-out: % viability, viability 2
Protocol: We screened the DDPs on the Drosophila assay system for cytotoxicity, inhibitory activity of innate immune signalling and insecticidal activity. The cytotoxicity of the DDPs was evaluated using two cell lines, embryonic macrophage-derived DL1 cells[58]–[60] and larval blood cell-derived l(2)mbn cells, and their IC50 values are listed in Supplementary Table 23.
Task for the reader: assign each of the following compounds its reported viability at 0.04 µM.
Answers are plain numbers, in %.

For orientation, consider the following solved cases.
compound=C=C1CC[C@H]2[C@]3(C)C[C@@H](C=C(C)C)O[C@H]3CC[C@]2(C)[C@@H]1Cc1c(O)c(C)c(C)oc1=O measured_value=8.13
compound=C=C1CC[C@H]2[C@]3(C)C[C@H](C=C(C)C)O[C@H]3CC[C@]2(C)[C@@H]1Cc1c(O)c(C)c(C)oc1=O measured_value=124
compound=C=C1CC[C@H]2[C@]3(C)C[C@H](C=C(C)C)O[C@H]3CC[C@]2(C)[C@@H]1Cc1c(OC)oc(C)c(C)c1=O measured_value=113
compound="C=C1CCC2C(C)(CC(=O)C=C(C)C)C(O)CCC2(C)C1Cc1c(O)c(C)c(C)oc1=O (stereo not drawn)" measured_value=132
compound="C=C1CCC2C(C)(CCC=C(C)C)C(O)CCC2(C)C1Cc1c(OC)oc(CO)c(C(=O)OC)c1=O (stereo not drawn)" measured_value=102

Proceeding to the next compound to report its viability at 0.04 µM.
QUERY: Returns the measured viability at 0.04 µM for the input compound. Input: C=C1CC[C@@H]2[C@](C)(CC[C@H]3O[C@H](C=C(C)C)C[C@@]23C)[C@@H]1Cc1c(OC)oc(CO)c(C(=O)OC)c1=O
RESULT: 8.79

Where these numbers come from: paper PMC7156458
